Listed next: entries and their corresponding self-cleavage.
B1: Hairpin Ribozyme (parent)
chain: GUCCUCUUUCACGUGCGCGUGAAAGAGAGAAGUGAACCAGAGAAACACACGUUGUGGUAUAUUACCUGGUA

# Variants of: B1
# test-protocol: self-cleavage, relative activity (ratio to wild type); higher = more cleavage; co-transcriptional

| var | self-cleavage |
| --- | --- |
| A64G U67C | 0.122 |
| U9A G34A | 0.905 |
| C38U G54C | 0.235 |
| C16G C38A | 0.154 |
| A30G C46G | 0.185 |
| A24U G42C | 0.394 |
| A43G A44G | 0.0966 |
| U5C C38G | 0.115 |
| C16U A35C | 1.39 |
| U14G G68A | 0.32 |
| A28C U58C | 0.545 |
